- System: MES SA (uterine sarcoma cell line)
- Assay overview: In vitro cytotoxicity assay (CellTiter-Glo, 72 hours), MES SA
- Type: cell-based
- Setup conditions: Homo sapiens, MES-SA, 72 h, read-out: MES SA, IC50 Value in nM
Rule: measured IC50 below 0.1 nM gets fulfilled; anything equal to or greater than 0.1 nM gets not fulfilled.

Solved cases (5 shown):
>>> category_label("CC(C)[C@H](NC(=O)[C@H]1CCCCN1C)C(=O)N(C)[C@H](CC(=O)c1nc(C(=O)N[C@@H](Cc2ccccc2)C[C@H](C)C(=O)O)cs1)C(C)C")
"not fulfilled"
>>> category_label("COC(=O)[C@@H](C)C[C@H](Cc1ccc2ccccc2c1)NC(=O)c1csc([C@@H](C[C@H](C(C)C)N(C)C(=O)[C@@H](NC(=O)[C@H]2CCCCN2C)C(C)C)OC(C)=O)n1")
"not fulfilled"
>>> category_label("COC(=O)[C@@H](C)C[C@H](Cc1ccccc1)NC(=O)c1csc([C@@H](C[C@H](C(C)C)N(C)C(=O)[C@H](CC(F)(F)F)NC(=O)[C@H]2CCCN2C)OC(C)=O)n1")
"not fulfilled"
>>> category_label("COC(=O)[C@@H](C)C[C@H](Cc1ccccc1)NC(=O)c1nc([C@@H](C[C@H](C(C)C)N(C)C(=O)[C@@H](NC(=O)[C@H]2CCCCN2)C(C)C)OC(C)=O)sc1C")
"not fulfilled"
>>> category_label("CCOC(=O)[C@@H](C)C[C@H](Cc1ccccc1)NC(=O)c1csc([C@@H](C[C@H](C(C)C)N(C)C(=O)[C@H](CC)NC(=O)[C@H]2CCCCN2C)OC(C)=O)n1")
"not fulfilled"

Query: In plain terms, does COC(=O)C12CC(NC(=O)c3csc([C@@H](C[C@H](C(C)C)N(C)C(=O)[C@@H](NC(=O)[C@H]4CCCCN4C)C(C)C)OC(C)=O)n3)(C1)C2 come in under 0.1 nM for IC50?
Response: not fulfilled

Query: In plain terms, does CCOC(=O)[C@@H](C)C[C@H](Cc1ccccc1)NC(=O)c1csc([C@@H](C[C@H](C(C)C)N(C)C(=O)[C@@H](NC(=O)[C@H]2CCCCN2C)C(C)(C)C)OC(C)=O)n1 come in under 0.1 nM for IC50?
Response: not fulfilled

Query: In plain terms, does COC(=O)[C@@H](C)C[C@H](Cc1ccccc1)NC(=O)c1csc([C@@H](C[C@H](C(C)C)N(C)C(=O)[C@H](NC(=O)[C@H]2CCCN2C)C(C(F)(F)F)C(F)(F)F)OC(C)=O)n1 come in under 0.1 nM for IC50?
Response: not fulfilled

Query: In plain terms, does COC(=O)[C@H](CO)C[C@H](Cc1ccccc1)NC(=O)c1csc([C@@H](C[C@H](C(C)C)N(C)C(=O)[C@@H](NC(=O)[C@H]2CCCCN2C)C(C)C)OC(C)=O)n1 come in under 0.1 nM for IC50?
Response: fulfilled

Query: In plain terms, does CC(=O)O[C@H](C[C@H](C(C)C)N(C)C(=O)[C@@H](NC(=O)[C@H]1CCCCN1C)C(C)C)c1nc(C(=O)NC(Cc2ccccc2)C[C@H](C)C(=O)O)c(CCOCc2ccccc2)s1 (stereo in doubt) come in under 0.1 nM for IC50?
Response: fulfilled

====

- Test system: MES SA (uterine sarcoma cell line)
- Assay overview: In vitro cytotoxicity assay (CellTiter-Glo, 72 hours), MES SA
- Type: cell-based
- Setup conditions: Homo sapiens, MES-SA, 72 h, read-out: MES SA, IC50 Value in nM
Property name: IC50

>>> value_observed("CC(=O)O[C@H](C[C@H](C(C)C)N(C)C(=O)[C@@H](NC(=O)[C@H]1CCCCN1C)C(C)C)c1nc(C(=O)N[C@@H](Cc2ccccc2)CC2C(=O)OC(C)(C)OC2=O)cs1 [Tb114]")
"1.23 nM"
>>> value_observed("CCOC(=O)[C@@H](C)C[C@H](Cc1ccccc1)NC(=O)c1csc([C@@H](C[C@H](C(C)C)N(C)C(=O)[C@H](CCC(C)C)NC(=O)[C@H]2CCCCN2C)OC(C)=O)n1 [Tb97]")
"4.65 nM"
>>> value_observed("COC(=O)[C@@H](C)C[C@H](Cc1ccccc1)NC(=O)c1nc([C@@H](C[C@H](C(C)C)N(C)C(=O)[C@@H](NC(=O)[C@H]2CCCN2C)C(C)C)OC(C)=O)sc1C [Tb70]")
"3.11 nM"
>>> value_observed("CC[C@H](C)[C@H](NC(=O)[C@H]1CCCCN1C)C(=O)N(C)[C@H](C[C@@H](O)c1nc(C(=O)N[C@@H](Cc2ccccc2)C[C@H](C)C(=O)O)cs1)C(C)C [Tb58]")
"> 1000 nM"

Query: Quick check: IC50 on MES SA (uterine sarcoma cell line), item COC(=O)[C@@H](C)C[C@H](Cc1ccccc1)NC(=O)c1csc([C@@H](C[C@H](C(C)C)N(C)C(=O)[C@H](CC(F)(F)F)NC(=O)[C@H]2CCCCN2C)OC(C)=O)n1 [Tb81] ?
Response: 5.84 nM

====

- System: MES SA (uterine sarcoma cell line)
- Assay overview: In vitro cytotoxicity assay (CellTiter-Glo, 72 hours), MES SA
- Type: cell-based
- Setup conditions: Homo sapiens, MES-SA, 72 h, read-out: MES SA, IC50 Value in nM
log10 of IC50 overview
Lab note - IC50 converted to log10 from values in nM.

// known answers, use as guide
>>> value_observed("COC(=O)C12CC(NC(=O)c3csc([C@@H](C[C@H](C(C)C)N(C)C(=O)[C@@H](NC(=O)[C@H]4CCCCN4C)C4CC4)OC(C)=O)n3)(C1)C2")
1.18
>>> value_observed("CC(=O)O[C@H](CC(C(C)C)N(C)C(=O)[C@@H](NC(=O)[C@H]1CCCCN1C)C(C)C)c1nc(C(=O)NC(Cc2ccccc2)CC(C)C(=O)O)c(CCO)s1 (stereo in doubt)")
0.76
>>> value_observed("COC(=O)CC12CC(NC(=O)c3csc([C@@H](C[C@H](C(C)C)N(C)C(=O)[C@@H](NC(=O)[C@H]4CCCCN4C)C(C)C)OC(C)=O)n3)(C1)C2")
0.44
>>> value_observed("CC(=O)O[C@H](C[C@H](C(C)C)N(C)C(=O)[C@H](NC(=O)[C@H]1CCCCN1C)C(C(F)(F)F)C(F)(F)F)c1nc(C(=O)N[C@@H](Cc2ccccc2)C[C@H](C)C(=O)O)cs1")
2.37
>>> value_observed("CCOC(=O)[C@@H](C)C[C@H](Cc1ccccc1)NC(=O)c1csc([C@@H](C[C@H](C(C)C)N(C)C(=O)CNC(=O)[C@H]2CCCCN2C)OC(C)=O)n1")
2.66
>>> value_observed("CCOC(=O)[C@@H](C)CC(Cc1ccccc1)NC(=O)c1nc([C@@H](C[C@H](C(C)C)N(C)C(=O)[C@@H](NC(=O)[C@H]2CCCCN2C)C(C)C)OC(C)=O)sc1CCOCc1ccccc1 (stereo in doubt)")
0.49

Query: Query (compound): CC(=O)O[C@H](C[C@H](C(C)C)N(C)C(=O)[C@@H](NC(=O)[C@H]1CCCCN1C)C(C)C)c1nc(C(=O)N[C@@H](Cc2ccccc2)C[C@H](C)C(=O)O)c(C(C)C)s1 ; field requested: log10 of IC50
Response: 0.11

====

- Test system: MES SA (uterine sarcoma cell line)
- Assay overview: In vitro cytotoxicity assay (CellTiter-Glo, 72 hours), MES SA
- Assay type: cell-based
- Setup conditions: Homo sapiens, MES-SA, 72 h, read-out: MES SA, IC50 Value in nM
Property name: IC50

// known answers, use as guide
>>> value_observed("CC[C@H](C)[C@H](NC(=O)c1cccn1C)C(=O)N(C)[C@H](C[C@@H](OC(C)=O)c1nc(C(=O)N[C@@H](Cc2ccccc2)C[C@H](C)C(=O)OC)cs1)C(C)C")
"> 1000 nM"
>>> value_observed("CC(=O)O[C@H](C[C@H](C(C)C)N(C)C(=O)[C@H](C)NC(=O)[C@H]1CCCN1C)c1nc(C(=O)N[C@@H](Cc2ccccc2)C[C@H](C)C(=O)O)cs1")
"> 1000 nM"
>>> value_observed("COC(=O)[C@@H](C)C[C@H](Cc1ccccc1)NC(=O)c1cccc([C@@H](C[C@H](C(C)C)N(C)C(=O)[C@@H](NC(=O)[C@H]2CCCCN2C)C(C)C)OC(C)=O)n1")
"0.22 nM"
>>> value_observed("CCCCN1CCCC[C@@H]1C(=O)N[C@H](C(=O)N(C)[C@H](C[C@@H](OC(C)=O)c1nc(C(=O)N[C@H]2CC[C@H](C(=O)OC)CC2)cs1)C(C)C)C(C)C")
"> 1000 nM"

In the following, a different molecule is considered.
Query: Query (molecule): CC[C@H](C)[C@H](NC(=O)c1nccn1C)C(=O)N(C)[C@H](C[C@@H](OC(C)=O)c1nc(C(=O)N[C@@H](Cc2ccccc2)C[C@H](C)C(=O)OC)cs1)C(C)C ; field requested: IC50
Response: > 1000 nM

The reported numbers originate from patent US11274124B2.
